Reference source: PubChem BioAssay (NCI)

I'd appreciate it if you could supply growth values for the items below.
Tested on: MDA-MB-468 breast
Assay: NCI-60 one-dose screen, 48 h (100 = growth as untreated, 0 = no growth, -100 = all killed)
Conditions: 10 µM unless noted
Compounds without any hit were thinned out: in the full panel of roughly 83,000, 20% have a hit.
Numbers only, in %.

Here are 5 molecules together with their reported answers.
molecule: Cn1cnc([N+](=O)[O-])c1Sc1nnc(-c2ccccc2)c(-c2ccccc2)n1
unit_info: %
growth: 64.8
--
molecule: CCCCn1c(=O)[nH]c2c(c1=O)C(c1ccc(Cl)cc1)c1c([nH]c(=O)n(CCCC)c1=O)N2
unit_info: %
growth: 108
--
molecule: Cc1cccc(-n2c(C)nc3ccc(N4CCCNC4=O)cc3c2=O)c1
unit_info: %
growth: 99.4
--
molecule: COc1cc(NCCCN=C(N)NC(N)=NC(C)C)c2ncccc2c1
unit_info: %
growth: -34.2
--
molecule: CC/C(=C(/c1ccc(Cl)cc1)c1ccc(OCCN2CCCC2)cc1)c1ccc(OC)cc1
unit_info: %
growth: 46.5

Give me growth for each of these molecules, listed below.
1. CCNc1ccc2ccccc2c1N=Nc1ccc(N=Nc2ccccc2)cc1
2. COc1ccc(Cn2cc(COc3ccc4c5ccnc(C)c5n(CCCc5ccccc5)c4c3)nn2)cc1

1: 104; 2: 62.5

List the reported growth of each molecule below.
1. O=C(NCc1ccco1)C1CCN(S(=O)(=O)c2ccc(Cl)cc2)CC1
2. COc1ccc(-c2cs/c(=N\N=C\c3ccc(O)cc3O)n2/N=C/c2ccc(O)cc2O)cc1
3. Cc1ccccc1C(=O)c1ccccc1C(=O)O

1. 56.2
2. -23.3
3. 108
